test system: P. berghei exo-erythrocytic forms (EEF); experiment: Pb liver stage assay; type: cell-based; conditions: Plasmodium berghei, 48 h, read-out: Pb EEF IC50, P. berghei exo-erythrocytic forms in HepG2-A16-CD81EGFP cells, 48 h
pIC50: −log10 of the molar value.
REPORTED PROPERTY: pIC50

> print(dat)
                       smiles.structure  assay.value
1     CCCOc1ccc(C(=O)NOCCCCCC(=O)NO)cc1       < 5.30
2  CCCCCCOc1ccc(C(=O)NOCCCCCC(=O)NO)cc1       < 5.30

Now look at this one.
Quick check: pIC50 of `CCCCCOc1ccc(C(=O)NOCCCCCC(=O)NO)cc1` ?
< 5.30
